- subjectOfTest: Transcription factor Sp1 (Homo sapiens) (UniProt P08047)
- Sequence (P08047 whole entry, looked up): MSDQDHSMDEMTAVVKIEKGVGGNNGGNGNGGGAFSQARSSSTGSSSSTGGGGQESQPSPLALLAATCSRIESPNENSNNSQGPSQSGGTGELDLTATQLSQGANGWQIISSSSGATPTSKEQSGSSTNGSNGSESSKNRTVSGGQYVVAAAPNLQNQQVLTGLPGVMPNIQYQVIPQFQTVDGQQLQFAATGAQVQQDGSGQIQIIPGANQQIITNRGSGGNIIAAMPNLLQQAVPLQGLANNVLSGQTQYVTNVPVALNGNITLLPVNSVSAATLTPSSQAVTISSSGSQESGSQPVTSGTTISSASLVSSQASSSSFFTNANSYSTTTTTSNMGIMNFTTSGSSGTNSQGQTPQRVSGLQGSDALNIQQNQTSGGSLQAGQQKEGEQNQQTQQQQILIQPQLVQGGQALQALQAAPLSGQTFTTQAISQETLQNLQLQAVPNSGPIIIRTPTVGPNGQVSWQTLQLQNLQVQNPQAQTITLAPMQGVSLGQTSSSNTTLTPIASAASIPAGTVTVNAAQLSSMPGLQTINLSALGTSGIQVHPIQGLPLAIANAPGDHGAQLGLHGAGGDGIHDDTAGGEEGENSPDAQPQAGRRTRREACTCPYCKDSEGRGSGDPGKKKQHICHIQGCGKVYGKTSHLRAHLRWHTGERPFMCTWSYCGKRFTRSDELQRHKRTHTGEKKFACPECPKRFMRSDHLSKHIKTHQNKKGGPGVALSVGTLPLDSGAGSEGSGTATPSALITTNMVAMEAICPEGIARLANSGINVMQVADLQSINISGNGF
- measurementNotes: ATG_Sp1_CIS: Attagene CIS-FACTORIAL HepG2 Assay for human Specificity Protein 1 (Sp1) (AID 2282961)
- runParameters: HepG2 Sp1 cis-reporter transcription, actives raise or lower the signal
Activity calls are given as the source filed them. How the source made its calls: active means hit-call score of the fitted dose curve at least 0.9, where 1 is the maximum; inactive means score below 0.9.
Classes used: y for active, n for inactive

- compound: "CCCCC1(COC(=O)CCC(=O)O)C(=O)N(c2ccccc2)N(c2ccccc2)C1=O"
  subjectOfTest: "Transcription factor Sp1 (Homo sapiens) (UniProt P08047)"
  discreteLabel: "n"
- compound: "COC(=O)c1ccc([N+](=O)[O-])cc1"
  subjectOfTest: "Transcription factor Sp1 (Homo sapiens) (UniProt P08047)"
  discreteLabel: "n"
- compound: "CCCC(O)C(O)CO (stereo unspecified)"
  subjectOfTest: "Transcription factor Sp1 (Homo sapiens) (UniProt P08047)"
  discreteLabel: "n"
- compound: "COc1cc(CCC(C)=O)ccc1O"
  subjectOfTest: "Transcription factor Sp1 (Homo sapiens) (UniProt P08047)"
  discreteLabel: "n"
- compound: "CCOC(=O)CCc1ccccc1"
  subjectOfTest: "Transcription factor Sp1 (Homo sapiens) (UniProt P08047)"
  discreteLabel: "n"
- compound: "CCCCCCC(O)CCCCCCCCCCC(=O)O (stereo unspecified)"
  subjectOfTest: "Transcription factor Sp1 (Homo sapiens) (UniProt P08047)"
  discreteLabel: "n"
- compound: "CC(C)C[C@H](NC(=O)OCC1c2ccccc2-c2ccccc21)C(=O)O"
  subjectOfTest: "Transcription factor Sp1 (Homo sapiens) (UniProt P08047)"
  discreteLabel: "n"
- compound: "CCCCCCOC(=O)C(C)C"
  subjectOfTest: "Transcription factor Sp1 (Homo sapiens) (UniProt P08047)"
  discreteLabel: "n"
- compound: "CCCCCc1ccco1"
  subjectOfTest: "Transcription factor Sp1 (Homo sapiens) (UniProt P08047)"
  discreteLabel: "n"
- compound: "CCCCCCCCC=CCCCCCCCC1=NCCN1CCO"
  subjectOfTest: "Transcription factor Sp1 (Homo sapiens) (UniProt P08047)"
  discreteLabel: "n"
- compound: "BrCc1cccc(Oc2ccccc2)c1"
  subjectOfTest: "Transcription factor Sp1 (Homo sapiens) (UniProt P08047)"
  discreteLabel: "n"
- compound: "Cc1ccc(-c2ccccc2)cc1"
  subjectOfTest: "Transcription factor Sp1 (Homo sapiens) (UniProt P08047)"
  discreteLabel: "n"
- compound: "CCCCCCCCCCCCCCCC(=O)OC/C=C(C)/C=C/C=C(C)/C=C/C1=C(C)CCCC1(C)C"
  subjectOfTest: "Transcription factor Sp1 (Homo sapiens) (UniProt P08047)"
  discreteLabel: "n"
- compound: "c1ccc(Oc2ccccc2)cc1"
  subjectOfTest: "Transcription factor Sp1 (Homo sapiens) (UniProt P08047)"
  discreteLabel: "n"
- compound: "C=C1C[C@]23C[C@@]1(O)CC[C@H]2[C@@]12C=C[C@H](O)[C@@](C)(C(=O)O1)[C@H]2[C@@H]3C(=O)O"
  subjectOfTest: "Transcription factor Sp1 (Homo sapiens) (UniProt P08047)"
  discreteLabel: "n"
- compound: "O=C1c2ccccc2C(=O)c2c(O)ccc(O)c21"
  subjectOfTest: "Transcription factor Sp1 (Homo sapiens) (UniProt P08047)"
  discreteLabel: "n"
- compound: "CCC1(C)NC(=O)NC1=O (stereo unspecified)"
  subjectOfTest: "Transcription factor Sp1 (Homo sapiens) (UniProt P08047)"
  discreteLabel: "n"
- compound: "COC(C)(C)CCO"
  subjectOfTest: "Transcription factor Sp1 (Homo sapiens) (UniProt P08047)"
  discreteLabel: "n"
- compound: "CCCOCCO"
  subjectOfTest: "Transcription factor Sp1 (Homo sapiens) (UniProt P08047)"
  discreteLabel: "n"
- compound: "CCCC1O[C@@H]2C[C@H]3[C@@H]4CCC5=CC(=O)C=C[C@]5(C)[C@H]4[C@@H](O)C[C@]3(C)[C@]2(C(=O)CO)O1 (stereo partly specified)"
  subjectOfTest: "Transcription factor Sp1 (Homo sapiens) (UniProt P08047)"
  discreteLabel: "n"
- compound: "CC1(C)O[C@@H]2C[C@H]3[C@@H]4CCC5=CC(=O)C=C[C@]5(C)[C@@]4(F)[C@@H](O)C[C@]3(C)[C@]2(C(=O)CO)O1"
  subjectOfTest: "Transcription factor Sp1 (Homo sapiens) (UniProt P08047)"
  discreteLabel: "n"
- compound: "CCCOC(=O)c1c(Cl)c(Cl)c(Cl)c(Cl)c1C(=O)OCCC"
  subjectOfTest: "Transcription factor Sp1 (Homo sapiens) (UniProt P08047)"
  discreteLabel: "y"
- compound: "C=C(C)C(=O)OCCOCCOCCOCCOC(=O)C(=C)C"
  subjectOfTest: "Transcription factor Sp1 (Homo sapiens) (UniProt P08047)"
  discreteLabel: "n"
- compound: "CCOC(=O)CC(C)O (stereo unspecified)"
  subjectOfTest: "Transcription factor Sp1 (Homo sapiens) (UniProt P08047)"
  discreteLabel: "n"
- compound: "O=[N+]([O-])c1cccc(Cl)c1"
  subjectOfTest: "Transcription factor Sp1 (Homo sapiens) (UniProt P08047)"
  discreteLabel: "n"
- compound: "O=C(O)c1ccc(O)cc1"
  subjectOfTest: "Transcription factor Sp1 (Homo sapiens) (UniProt P08047)"
  discreteLabel: "n"

---

- measurementNotes: ATG_EGR_CIS: Attagene CIS-FACTORIAL HepG2 Assay for human Early Growth Response 1 (EGR1) (AID 2282938)
- runParameters: HepG2 Attagene CIS-FACTORIAL EGR reporter mRNA; actives raise or lower the signal
The source made the active and inactive calls. Rule for the calls: active = hit-call score of the fitted dose curve at least 0.9, where 1 is the maximum; inactive = score below 0.9.
Labels: active, inactive

- compound: "CN(c1nccc(=O)[nH]1)C1CCN(c2nc3ccccc3n2Cc2ccc(F)cc2)CC1"
  discreteLabel: "inactive"
- compound: "CCCOC(=O)c1c(Cl)c(Cl)c(Cl)c(Cl)c1C(=O)OCCC"
  discreteLabel: "inactive"
- compound: "COCCOC(=O)c1ccccc1C(=O)OCCOC"
  discreteLabel: "inactive"
- compound: "COc1cc(C(C)C)ccc1C"
  discreteLabel: "inactive"
- compound: "COc1ccc(COC(C)=O)cc1"
  discreteLabel: "inactive"
- compound: "OCc1cccc(Oc2ccccc2)c1"
  discreteLabel: "inactive"
- compound: "CC(C)=CCCC(C)CC(=O)O (centres undefined)"
  discreteLabel: "inactive"
- compound: "CSCCC=O"
  discreteLabel: "inactive"
- compound: "CS(=O)(=O)OCCCCOS(C)(=O)=O"
  discreteLabel: "inactive"
- compound: "O=CN1CCOCC1"
  discreteLabel: "inactive"
- compound: "NC1CCCCC1N (centres undefined)"
  discreteLabel: "inactive"
- compound: "O=Cc1ccccc1S(=O)(=O)O"
  discreteLabel: "inactive"
- compound: "COCCOCCOCCO"
  discreteLabel: "inactive"
- compound: "Cc1ccc(N)c(S(=O)(=O)O)c1"
  discreteLabel: "inactive"
- compound: "CN1CCOCC1"
  discreteLabel: "inactive"
- compound: "C=C(C)CNCC"
  discreteLabel: "inactive"
- compound: "CCc1cc(C(C)(C)C)c(O)c(C(C)(C)C)c1"
  discreteLabel: "inactive"
- compound: "NCc1ccco1"
  discreteLabel: "inactive"
- compound: "COC(C)(C)CCO"
  discreteLabel: "inactive"
- compound: "CCc1ncc(C)[nH]1"
  discreteLabel: "inactive"
- compound: "c1ccc(CN(Cc2ccccc2)Cc2ccccc2)cc1"
  discreteLabel: "inactive"
- compound: "CCCCCCCCCCCCN1CCCCCC1=O"
  discreteLabel: "inactive"
- compound: "CCNCCO"
  discreteLabel: "inactive"
- compound: "CCCCCCCCCCCCCCCC(=O)OC/C=C(C)/C=C/C=C(C)/C=C/C1=C(C)CCCC1(C)C"
  discreteLabel: "inactive"
- compound: "OCCCCC(O)CO (centres undefined)"
  discreteLabel: "inactive"
- compound: "CC/C=C\\CCOC(=O)CC"
  discreteLabel: "inactive"
- compound: "CC1=NN(c2ccc(S(=O)(=O)O)cc2)C(=O)C1"
  discreteLabel: "inactive"
- compound: "CCC(C)S (centres undefined)"
  discreteLabel: "inactive"
- compound: "COc1cc(CCC(C)=O)ccc1O"
  discreteLabel: "inactive"
- compound: "CCCCCCCCCCCC(=O)OCC(O)CO (centres undefined)"
  discreteLabel: "inactive"
- compound: "CCC(C)=O"
  discreteLabel: "inactive"
- compound: "C=CCCC(=O)/C=C/C1C(C)=CCCC1(C)C (centres undefined)"
  discreteLabel: "inactive"
- compound: "BrCc1cccc(Oc2ccccc2)c1"
  discreteLabel: "inactive"
- compound: "NC(=S)NNC(N)=S"
  discreteLabel: "inactive"
- compound: "Nc1ccc2c(O)cc(S(=O)(=O)O)cc2c1"
  discreteLabel: "inactive"
- compound: "Cc1[nH]c(=O)c(C#N)cc1-c1ccncc1"
  discreteLabel: "inactive"
- compound: "CC(C)(C)C1=CC(=O)C(C(C)(C)C)=CC1=O"
  discreteLabel: "active"
- compound: "CCCCCCOC(=O)CCC"
  discreteLabel: "inactive"
- compound: "CSc1c(Cl)c(Cl)c(Cl)c(Cl)c1Cl"
  discreteLabel: "inactive"
- compound: "C1CCCCC1"
  discreteLabel: "inactive"
- compound: "CC=CC=CCOC(=O)C(C)C"
  discreteLabel: "inactive"
- compound: "CC1(C)O[C@@H]2C[C@H]3[C@@H]4CCC5=CC(=O)C=C[C@]5(C)[C@@]4(F)[C@@H](O)C[C@]3(C)[C@]2(C(=O)CO)O1"
  discreteLabel: "inactive"
- compound: "C=CC(C)(O)CCC=C(C)C (centres undefined)"
  discreteLabel: "inactive"
- compound: "CCCCCCCC(=O)OCCCCCC"
  discreteLabel: "inactive"
